# SYSTEM UNDER TEST: OSBPL11 (OSBPL11-myc-His) (Homo sapiens, UniProt Q9BXB4)
# Construct: full length, C-terminal myc-His tag (pcDNA3.1(+)myc/his C), transiently expressed in 293T cells; 100,000 g supernatant (S100) of lysate, not purified
# Sequence (Q9BXB4 whole entry): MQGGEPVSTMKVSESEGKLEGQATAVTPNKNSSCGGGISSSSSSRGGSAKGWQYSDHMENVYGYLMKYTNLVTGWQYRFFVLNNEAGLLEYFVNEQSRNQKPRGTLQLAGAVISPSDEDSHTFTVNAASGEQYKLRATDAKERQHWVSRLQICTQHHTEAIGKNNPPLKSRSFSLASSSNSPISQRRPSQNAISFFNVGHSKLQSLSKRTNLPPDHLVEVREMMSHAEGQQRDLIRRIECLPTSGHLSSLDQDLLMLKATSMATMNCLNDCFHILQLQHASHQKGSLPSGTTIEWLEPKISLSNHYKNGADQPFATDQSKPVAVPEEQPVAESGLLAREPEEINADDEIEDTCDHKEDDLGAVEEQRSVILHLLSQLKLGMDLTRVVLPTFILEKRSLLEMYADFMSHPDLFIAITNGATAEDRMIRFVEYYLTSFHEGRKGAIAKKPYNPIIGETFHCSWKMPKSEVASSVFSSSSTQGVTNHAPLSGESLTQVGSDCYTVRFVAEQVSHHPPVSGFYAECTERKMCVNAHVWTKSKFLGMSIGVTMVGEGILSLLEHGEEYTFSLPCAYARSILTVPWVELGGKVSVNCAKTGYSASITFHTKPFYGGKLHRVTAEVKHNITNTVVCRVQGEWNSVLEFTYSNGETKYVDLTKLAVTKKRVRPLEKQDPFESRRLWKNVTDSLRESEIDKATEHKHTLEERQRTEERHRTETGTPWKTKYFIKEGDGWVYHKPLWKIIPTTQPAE
# TEST DETAILS: [3H]-25-hydroxycholesterol competition binding, charcoal/dextran, S100 lysate
MEASURED METRIC: pKi
Lab note: report pKi as minus log10 of the concentration in molar units, number only.

Problem: What pKi value was documented for this molecule, C[C@H](CCCC(C)(C)O)[C@H]1CC[C@H]2[C@@H]3CC=C4C[C@@H](O)CC[C@]4(C)[C@H]3CC[C@]12C [25-hydroxycholesterol] ?
Solution: 7.49
